test system: Staphylococcus aureus; assay: Antibacterial activity against Staphylococcus aureus MSSA 22 at 37 degC after 24 hrs by filter paper disk method; format: functional
Provide the reported diameter of the inhibition zone (DIZ) of each item.
Write the value in mm as a bare number.

QUERY: Item `CCCCCCCC/C=C/CCCCCCCc1ncc[nH]1` with Staphylococcus aureus - diameter of the inhibition zone (DIZ)?
RESULT: 15

QUERY: Follow-up entry: `CCCCCC[C@@H](O)C/C=C\CCCCCCCc1nc2cc(Cl)ccc2[nH]1`
RESULT: 21

QUERY: Cool, now `CCCCCC[C@@H](O)C/C=C\CCCCCCCc1nc2cc([N+](=O)[O-])ccc2[nH]1`
RESULT: 19

====

Exercise: state measured MIC for each of the molecules provided.
system: Candida albicans; assay: Antifungal activity against Candida albicans IOA-109 at 37 degC after 18 to 48 hrs; assay type: functional; conditions: Candida albicans, IOA-109
Express the result in µg/mL but write the number alone.

QUERY: I would be grateful if you could share the reported MIC for `CCCCCC[C@@H](O)C/C=C\CCCCCCCc1nc2c([nH]1)CCCC2` .
RESULT: 75

QUERY: What do you get for `CCCCC/C=C\CC[C@H](O)CCCCCCCc1nc2ccccc2[nH]1` ?
RESULT: 75

QUERY: Try this molecule too: `C=CCCCCCCCCc1nc2ccccc2[nH]1`
RESULT: 75

QUERY: Field entry: `CCCCC/C=C\CC[C@H](O)CCCCCCCc1nc2cc([N+](=O)[O-])ccc2[nH]1`
RESULT: 37.5

QUERY: And then `CCCCCC[C@@H](O)C/C=C\CCCCCCCc1ncc[nH]1` , what is it?
RESULT: 75

QUERY: And then `CCCCCC[C@@H](O)C/C=C\CCCCCCCc1nc2cc(Cl)ccc2[nH]1` , what is it?
RESULT: 37.5

QUERY: Can you handle `C=CCCCCCCCCc1nc2cc([N+](=O)[O-])ccc2[nH]1` next?
RESULT: 37.5

QUERY: Try `CCCCC/C=C\CC[C@H](O)CCCCCCCc1ncc[nH]1` next.
RESULT: 75

QUERY: // repeat for `C=CCCCCCCCCc1nc2c([nH]1)CCCC2` and report
RESULT: 75

QUERY: Record: `CCCCCC[C@@H](O)C/C=C\CCCCCCCc1nc2ccccc2[nH]1`
RESULT: 75

QUERY: Check `CCCCC/C=C\CC[C@H](O)CCCCCCCc1nc2c([nH]1)CCCC2` too.
RESULT: 75

QUERY: Item: `CCCCCCCC/C=C\CCCCCCCc1nc2ccccc2[nH]1`
RESULT: 75

QUERY: How about `C=CCCCCCCCCc1nc2cc(Cl)ccc2[nH]1` ?
RESULT: 37.5

QUERY: Another molecule: `CCCCCC[C@@H](O)C/C=C\CCCCCCCc1nc2cc([N+](=O)[O-])ccc2[nH]1`
RESULT: 37.5

QUERY: Ok, now `CCCCCCCC/C=C/CCCCCCCc1nc2cc(Cl)ccc2[nH]1`
RESULT: 37.5

QUERY: Same again, this time with `CCCCCCCC/C=C/CCCCCCCc1nc2cc([N+](=O)[O-])ccc2[nH]1`
RESULT: 37.5

QUERY: Next molecule: `C=CCCCCCCCCc1ncc[nH]1`
RESULT: 75

QUERY: Another molecule to look at: `CCCCCCCC/C=C/CCCCCCCc1nc2c([nH]1)CCCC2`
RESULT: 75

QUERY: Please do the same for `CCCCC/C=C\CC[C@H](O)CCCCCCCc1nc2cc(Cl)ccc2[nH]1` as well.
RESULT: 37.5

QUERY: Also check `CCCCCCCC/C=C/CCCCCCCc1ncc[nH]1`
RESULT: 75
